Reported values: IC50 for UniProt:P56524, one per item.
Sequence (P56524 whole entry): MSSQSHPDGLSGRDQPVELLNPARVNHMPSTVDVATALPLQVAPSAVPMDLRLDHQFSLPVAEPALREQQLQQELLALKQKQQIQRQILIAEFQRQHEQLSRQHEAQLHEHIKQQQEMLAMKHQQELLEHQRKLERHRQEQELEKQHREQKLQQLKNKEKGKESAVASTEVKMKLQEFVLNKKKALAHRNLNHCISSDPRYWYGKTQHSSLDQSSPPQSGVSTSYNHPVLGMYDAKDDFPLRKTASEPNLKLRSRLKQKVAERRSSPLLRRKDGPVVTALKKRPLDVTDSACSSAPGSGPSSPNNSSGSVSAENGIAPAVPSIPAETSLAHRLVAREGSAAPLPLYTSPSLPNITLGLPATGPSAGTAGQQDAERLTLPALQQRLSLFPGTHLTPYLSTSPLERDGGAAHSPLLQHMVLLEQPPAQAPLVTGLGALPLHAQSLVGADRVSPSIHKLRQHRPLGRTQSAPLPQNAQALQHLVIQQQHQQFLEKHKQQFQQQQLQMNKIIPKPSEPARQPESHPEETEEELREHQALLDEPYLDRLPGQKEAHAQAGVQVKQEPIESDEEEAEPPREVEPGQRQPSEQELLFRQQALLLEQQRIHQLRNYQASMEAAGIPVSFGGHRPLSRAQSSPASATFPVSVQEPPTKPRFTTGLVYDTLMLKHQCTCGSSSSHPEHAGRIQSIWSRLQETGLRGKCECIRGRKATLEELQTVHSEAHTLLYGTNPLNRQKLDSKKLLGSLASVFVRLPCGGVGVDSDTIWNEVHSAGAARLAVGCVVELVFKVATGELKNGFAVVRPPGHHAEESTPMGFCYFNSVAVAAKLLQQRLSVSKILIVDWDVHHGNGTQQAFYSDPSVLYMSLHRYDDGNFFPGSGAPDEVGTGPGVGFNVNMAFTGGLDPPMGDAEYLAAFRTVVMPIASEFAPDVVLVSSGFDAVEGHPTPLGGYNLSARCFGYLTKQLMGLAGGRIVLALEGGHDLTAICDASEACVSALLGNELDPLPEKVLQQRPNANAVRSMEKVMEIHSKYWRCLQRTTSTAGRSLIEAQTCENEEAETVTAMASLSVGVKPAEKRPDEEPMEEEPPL
# value in µM; strip the unit string

Below are worked cases with known answers.
# smiles repr, IC50 (µM)
data = [
    ("Cn1c(/C=C/C(=O)NO)ccc1/C=C/C(=O)c1cccc(Cl)c1", 132),
    ("CN(C)Cc1ccc(S(=O)(=O)n2ccc3cc(/C=C/C(=O)NO)ccc32)cc1", 16.7),
]

Which IC50 is listed for O=C(/C=C/c1ccc(CSc2nc(Cl)cc(-c3ccccc3)n2)cc1)NO ?
17.3

###

Listed here: compounds with reported IC50 for HDAC1 (Homo sapiens, UniProt Q13547).
Enter your answer as a number in nM; do not include the unit.

# smiles repr, readout kind, reported value
data = [
    ("O=C(/C=C/c1ccc(CSc2nc(Cl)cc(-c3ccccc3)n2)cc1)NO", "IC50", 1680),
]

Please look at the following compound next.
What reported IC50 corresponds to CN(C)Cc1ccc(S(=O)(=O)n2ccc3cc(/C=C/C(=O)NO)ccc32)cc1 on HDAC1 (Homo sapiens, UniProt Q13547)?
2070

###

protocol summary: MTT viability assay in RPE cells
Type: cell-based, human
protocol conditions: human, retinal pigment epithelial (RPE) cells, 1 μM, read-out: percentage of RPE cell viability, 48 h
readout kind: viability at 48 h, 1 µM (%)
Entry rule: numbers only, all in %.

# compound, result unit, viability at 48 h, 1 µM
records = [
    ("CC(C)(C)OC(=O)Nc1ccc(C(=O)/C=C/c2ccc(/C=C/C(=O)NO)cc2)cc1 [Compound 20]", "%", 80),
    ("CC(C)(C)OC(=O)Nc1cccc(C(=O)/C=C/c2ccc(C(=O)NO)cc2)c1 [Compound 19]", "%", 75.6),
    ("Cn1c(/C=C/C(=O)c2ccc(NC(=O)OC(C)(C)C)cc2)ccc1C(=O)NO [Compound 17]", "%", 74.2),
    ("CC(C)(C)OC(=O)Nc1ccc(C(=O)/C=C/c2ccc(C(=O)NO)cc2)cc1 [Compound 18]", "%", 67.9),
    ("CC(C)(C)OC(=O)Nc1cccc(C(=O)/C=C/c2ccc(/C=C/C(=O)NO)cc2)c1 [Compound 4]", "%", 75.7),
]

--- query ---
Fill blank: measured viability at 48 h, 1 µM of the compound CC1=C(/C=C/C(C)=C/C=C/C(C)=C/C(=O)Nc2ccccc2N)C(C)(C)CCC1 [Compound 8] is ____.
95.3

###

protocol summary: MTT viability assay in RPE cells
Type: cell-based, human
protocol conditions: human, retinal pigment epithelial (RPE) cells, 10 μM, read-out: percentage of RPE cell viability, 48 h
readout kind: viability at 48 h, 10 µM (%)
A number alone suffices; assume %.

Example entries and their recorded answers appear below.
# compound, reported value
data = [
    ("CC(C)(C)OC(=O)Nc1cccc(C(=O)/C=C/c2ccc(/C=C/C(=O)NO)cc2)c1 [Compound 4]", 50.2),
    ("CC(C)(C)OC(=O)Nc1ccc(C(=O)/C=C/c2ccc(C(=O)NO)cc2)cc1 [Compound 18]", 71),
]

GET /values?readout=viability at 48 h, 10 µM&item= Cn1c(/C=C/C(=O)c2ccc(NC(=O)OC(C)(C)C)cc2)ccc1C(=O)NO [Compound 17]
102

For the compound CC(C)(C)OC(=O)Nc1ccc(C(=O)/C=C/c2ccc(/C=C/C(=O)NO)cc2)cc1 [Compound 20] , what viability at 48 h, 10 µM is on record?
63

Can you share its viability at 48 h, 10 µM? I mean this compound: CC(C)(C)OC(=O)Nc1cccc(C(=O)/C=C/c2ccc(C(=O)NO)cc2)c1 [Compound 19]
82

Given the entry CC1=C(/C=C/C(C)=C/C=C/C(C)=C/C(=O)Nc2ccccc2N)C(C)(C)CCC1 [Compound 8] , report its measured viability at 48 h, 10 µM.
90.4

###

Here the recorded IC50 is given for each entry.
target or system: UniProt:Q969S8
Sequence (Q969S8 whole entry): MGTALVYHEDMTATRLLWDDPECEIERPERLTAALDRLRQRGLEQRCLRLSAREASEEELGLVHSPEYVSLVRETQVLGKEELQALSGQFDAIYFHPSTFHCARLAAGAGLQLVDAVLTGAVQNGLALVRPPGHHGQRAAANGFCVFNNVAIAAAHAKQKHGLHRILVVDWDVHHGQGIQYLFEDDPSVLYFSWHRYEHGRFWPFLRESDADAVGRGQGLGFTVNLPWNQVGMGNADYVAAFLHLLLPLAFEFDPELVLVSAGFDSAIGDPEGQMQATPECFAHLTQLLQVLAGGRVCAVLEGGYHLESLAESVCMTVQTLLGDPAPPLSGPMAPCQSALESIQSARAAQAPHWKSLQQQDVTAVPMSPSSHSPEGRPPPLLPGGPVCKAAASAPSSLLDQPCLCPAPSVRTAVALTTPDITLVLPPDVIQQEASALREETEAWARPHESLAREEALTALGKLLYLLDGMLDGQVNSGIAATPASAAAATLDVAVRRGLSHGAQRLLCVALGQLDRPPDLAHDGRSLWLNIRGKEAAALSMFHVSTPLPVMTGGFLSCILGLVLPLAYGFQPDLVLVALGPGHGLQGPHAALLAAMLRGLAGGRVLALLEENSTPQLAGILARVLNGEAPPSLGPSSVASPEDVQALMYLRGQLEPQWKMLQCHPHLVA

# compound, IC50
data = [
    ("CN(C)Cc1ccc(S(=O)(=O)n2ccc3cc(/C=C/C(=O)NO)ccc32)cc1 [Compound 6]", "2.87 µM"),
]

Here is another compound to look at.
Need IC50, item O=C(/C=C/c1ccc(CSc2nc(Cl)cc(-c3ccccc3)n2)cc1)NO [Compound 2]
2.8 µM

###

Test system: human retinal pigment epithelial (RPE) cells
protocol summary: MTT viability assay in RPE cells
Assay type: cell-based
protocol conditions: Homo sapiens, RPE, 48 h, read-out: IC50 in RPE cells (cell viability)
readout kind: IC50 (µM)
Express your answer in µM, writing the number without its unit.

# smiles repr, reported value
records = [
    ("CC(C)(C)OC(=O)Nc1cccc(C(=O)/C=C/c2ccc(/C=C/C(=O)NO)cc2)c1", 15.6),
    ("CC(C)(C)OC(=O)Nc1cccc(C(=O)/C=C/c2ccc(C(=O)NO)cc2)c1", 48.7),
    ("CC(C)(C)OC(=O)Nc1ccc(C(=O)/C=C/c2ccc(/C=C/C(=O)NO)cc2)cc1", 27.2),
]

Turning to the following compound.
Need IC50 of CC(C)(C)OC(=O)Nc1ccc(C(=O)/C=C/c2ccc(C(=O)NO)cc2)cc1 , thanks.
24.7

###

target or system: HDAC9 (Homo sapiens, UniProt Q9UKV0)
Sequence (Q9UKV0 whole entry): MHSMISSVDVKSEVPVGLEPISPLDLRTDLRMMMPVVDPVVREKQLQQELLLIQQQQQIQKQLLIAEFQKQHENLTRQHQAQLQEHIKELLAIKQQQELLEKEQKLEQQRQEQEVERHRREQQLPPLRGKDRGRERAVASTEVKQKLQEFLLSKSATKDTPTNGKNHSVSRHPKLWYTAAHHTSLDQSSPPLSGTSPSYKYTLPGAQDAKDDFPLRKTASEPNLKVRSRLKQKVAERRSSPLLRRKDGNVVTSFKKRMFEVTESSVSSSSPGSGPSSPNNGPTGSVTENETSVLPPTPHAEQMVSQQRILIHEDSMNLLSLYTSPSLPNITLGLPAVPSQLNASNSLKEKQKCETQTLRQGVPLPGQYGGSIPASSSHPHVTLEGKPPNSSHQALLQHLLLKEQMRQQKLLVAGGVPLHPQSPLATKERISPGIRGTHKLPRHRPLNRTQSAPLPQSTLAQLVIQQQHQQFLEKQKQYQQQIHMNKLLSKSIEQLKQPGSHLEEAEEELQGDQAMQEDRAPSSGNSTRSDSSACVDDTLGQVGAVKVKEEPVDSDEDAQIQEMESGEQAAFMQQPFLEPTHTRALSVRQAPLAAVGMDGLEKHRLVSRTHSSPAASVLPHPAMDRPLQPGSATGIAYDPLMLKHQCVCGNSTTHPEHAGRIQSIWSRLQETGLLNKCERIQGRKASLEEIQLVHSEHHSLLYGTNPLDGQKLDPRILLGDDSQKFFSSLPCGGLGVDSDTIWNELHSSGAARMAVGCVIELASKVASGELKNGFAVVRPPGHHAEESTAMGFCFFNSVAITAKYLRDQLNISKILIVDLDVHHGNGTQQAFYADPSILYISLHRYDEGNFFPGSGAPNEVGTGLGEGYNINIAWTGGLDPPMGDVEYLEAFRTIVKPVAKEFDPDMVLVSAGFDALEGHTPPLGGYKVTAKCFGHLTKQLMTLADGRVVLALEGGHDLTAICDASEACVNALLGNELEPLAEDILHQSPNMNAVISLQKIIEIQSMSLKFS
readout kind: pIC50
Note on units: pIC50 is unitless, being -log10 of a concentration expressed in mol/L.

Please provide the recorded pIC50 for CN(C)Cc1ccc(S(=O)(=O)n2ccc3cc(/C=C/C(=O)NO)ccc32)cc1 , tested on HDAC9 (Homo sapiens, UniProt Q9UKV0).
4.51

###

percentage of NTS activity, 72 h values, listed per item
Tested on: newly transformed schistosomula (NTS)
protocol summary: Phenotypic screening on newly transformed schistosomula (NTS)
Assay type: cell-based, Schistosoma mansoni
protocol conditions: 10 μM
Give the quantity in %, number only.

Check out these entries, answers already filled in.
# compound, result unit, percentage of NTS activity, 72 h
measured = [
    ("Nc1ccccc1NC(=O)c1ccc(CNC(=O)OCc2cccnc2)cc1 [Compound 9, entinostat, reference compound]", "%", 40.0),
    ("Cn1c(/C=C/C(=O)NO)ccc1/C=C/C(=O)c1cccc(Cl)c1 [Compound 3]", "%", 22.3),
    ("CC(C)(C)OC(=O)Nc1cccc(C(=O)/C=C/c2ccc(C(=O)NO)cc2)c1 [Compound 19]", "%", 100.0),
    ("CC1=C(/C=C/C(C)=C/C=C/C(C)=C/C(=O)Nc2ccccc2N)C(C)(C)CCC1 [Compound 8]", "%", 37.9),
    ("CN(C)Cc1ccc(S(=O)(=O)n2ccc3cc(/C=C/C(=O)NO)ccc32)cc1 [Compound 6]", "%", 20.9),
    ("O=C(/C=C/c1ccc(CSc2nc(Cl)cc(-c3ccccc3)n2)cc1)NO [Compound 2]", "%", 39.7),
    ("O=C(/C=C/c1ccc(NC(=O)Cc2cccc3ccccc23)cn1)NO [Compound 5]", "%", 31.0),
    ("O=C(CCCCSc1nc(-c2ccc(-c3ccccc3)cc2)cc(=O)[nH]1)NO [Compound 1]", "%", 29.3),
]

Entry under review: Cn1c(/C=C/C(=O)c2ccc(NC(=O)OC(C)(C)C)cc2)ccc1C(=O)NO [Compound 17] . Reported percentage of NTS activity, 72 h?
100.0

For the compound CC(C)(C)OC(=O)Nc1ccc(C(=O)/C=C/c2ccc(/C=C/C(=O)NO)cc2)cc1 [Compound 20] , what percentage of NTS activity, 72 h is on record?
100.0

Give the measured percentage of NTS activity, 72 h of O=C(/C=C/c1ccc(Cc2nnc(Cc3cccc4ccccc34)o2)cc1)NO [Compound 7] .
38.0

Please give the measured percentage of NTS activity, 72 h for this compound: CC(C)(C)OC(=O)Nc1ccc(C(=O)/C=C/c2ccc(C(=O)NO)cc2)cc1 [Compound 18]
100.0

###

protocol summary: in vitro
protocol conditions: mouse, noninfected L929 fibroblast cells
readout kind: CC50 at 96 h (µM)
The answer is to be given in µM; state only the numeric part.

# smiles repr, CC50 at 96 h, µM
rows = [
    ("O=C(/C=C/c1ccc(CSc2nc(Cl)cc(-c3ccccc3)n2)cc1)NO", 20),
]

Which CC50 at 96 h is reported for this molecule? Cn1c(/C=C/C(=O)NO)ccc1/C=C/C(=O)c1cccc(Cl)c1
40

Look up CC50 at 96 h for this molecule: O=C(/C=C/c1ccc(NC(=O)Cc2cccc3ccccc23)cn1)NO
1.25

Given CC(C)(C)OC(=O)Nc1cccc(C(=O)/C=C/c2ccc(/C=C/C(=O)NO)cc2)c1 , state its recorded CC50 at 96 h.
5

Given the entry O=C(/C=C/c1ccc(Cc2nnc(Cc3cccc4ccccc34)o2)cc1)NO , report its measured CC50 at 96 h.
5

Please look up its CC50 at 96 h: CN(C)Cc1ccc(S(=O)(=O)n2ccc3cc(/C=C/C(=O)NO)ccc32)cc1
5

What does the record list as CC50 at 96 h for CC1=C(/C=C/C(C)=C/C=C/C(C)=C/C(=O)Nc2ccccc2N)C(C)(C)CCC1 ?
80

# lookup: CC50 at 96 h of O=C(CCCCSc1nc(-c2ccc(-c3ccccc3)cc2)cc(=O)[nH]1)NO
20
